Kindly supply the reported logP values for the records listed here.
experiment: method code SF-HPLC, from DOI: 10.1002/etc.5620081103
Numbers only.

The cases that follow already have their logP on record.
| smiles.input | readout.label | measured.number |
| --- | --- | --- |
| CC(=O)OCCN(CCC#N)c1ccc(/N=N/c2nc3ccc([N+](=O)[O-])cc3s2)cc1 | logP | 4.6 |
| C=CCN(CCC#N)c1cc(NC(C)=O)c(/N=N/c2c(Br)cc([N+](=O)[O-])cc2[N+](=O)[O-])cc1OC | logP | 5.4 |
| O=C1C(c2nc3ccccc3cc2O)=C(O)c2ccccc21 | logP | 5 |

Let's switch to this molecule now.
In: Item under review: COc1cc(N=Nc2c(Br)cc([N+](=O)[O-])cc2Br)c(NC(C)=O)cc1N(CCOC(C)=O)CCOC(C)=O . Reported logP?
Out: 4.8
